- System: SARS-CoV-2
- measurementDescription: microbe, parasite or virus in culture
- conditionNotes: Severe acute respiratory syndrome coronavirus 2, Vero C1008, 48 h, read-out: pIC50 (converted)
quantityMeasured: IC50

Here is how some compounds turned out for IC50.
| compound | IC50 |
| --- | --- |
| CCc1nc2c(C)nc(C)cc2n1-c1ccc(CCNC(=O)NS(=O)(=O)c2ccc(C)cc2)cc1 [GRAPIPRANT] | > 20 µM |
| Nc1ccn([C@H]2CC[C@@H](CO)O2)c(=O)n1 [ZALCITABINE] | > 20 µM |

State the measured IC50 (SARS-CoV-2) of CCN1CCN(C(=O)N[C@@H](C(=O)N[C@@H]2C(=O)N3C(C(=O)O)=C(CSc4nnnn4C)CS[C@H]23)c2ccc(O)cc2)C(=O)C1=O [CEFOPERAZONE]
> 20 µM

Find IC50 for CC(C(=O)O)c1ccc2oc(-c3ccc(F)cc3)nc2c1 (stereo not drawn) on SARS-CoV-2 and write it down.
> 20 µM

Identify measured IC50 obtained with SARS-CoV-2 for O=C(C1CCCCC1)N1CC(=O)N2CCc3ccccc3C2C1 (stereo not drawn) [PRAZIQUANTEL] .
> 50.1 µM

Give IC50 only, for CCCCNC(=O)OCC(C)(CCC)COC(N)=O (stereo not drawn) [TYBAMATE] , using SARS-CoV-2 data.
> 20 µM

Fill in IC50 for Cn1c(=O)c2c(ncn2CCN2CCC(C(=O)c3ccc(F)cc3)CC2)n(C)c1=O [FLUFYLLINE] tested with SARS-CoV-2.
> 20 µM

Report value: IC50, system: SARS-CoV-2, compound: CC(=O)Oc1cc(O[C@H](C)CCCc2ccccc2)cc2c1[C@@H]1C[C@H](O)CC[C@H]1[C@H](C)N2 [LEVONANTRADOL]
> 20 µM

* * *

- System: SARS-CoV-2
- measurementDescription: microbe, parasite or virus in culture
- conditionNotes: Severe acute respiratory syndrome coronavirus 2, Vero C1008, 48 h
pIC50: −log10 of the molar value.
quantityMeasured: pIC50

| compound | experimentalValue |
| --- | --- |
| C[C@@H](O)CCCCn1c(=O)c2c(ncn2C)n(C)c1=O [LISOFYLLINE] | < 4.70 |

Annotate the compound "CC(C)[C@@]1(NC(=O)[C@@H]2C[C@@H]3c4cccc5[nH]cc(c45)C[C@H]3N(C)C2)O[C@@]2(O)[C@@H]3CCCN3C(=O)[C@H](C)N2C1=O" with its measured pIC50.
< 4.70

Using the record for COc1cc2c(cc1OC)C(C)N(CCc1ccc(N)cc1)CC2 (centres undefined) [VERADOLINE] , state its measured pIC50.
< 4.70

Supply measured pIC50 of CN1CCCC(n2nc(Cc3ccc(Cl)cc3)c3ccccc3c2=O)CC1 (centres undefined) [AZELASTINE] in your reply.
4.88

* * *

Listed here are compounds together with their documented CC50 at 48 h.
- measurementDescription: in vitro
- conditionNotes: chlorocebus sabaeus, Vero E6 (Vero C1008) cells, CC50
Use µM as the unit, but write only the number.

Give me measured CC50 at 48 h, please, for this compound: CN(C)CCOC(C)(c1ccccc1)c1ccc(Cl)cc1 (centres undefined)
28.2

* * *

- Test system: SARS-CoV-2
- measurementDescription: microbe, parasite or virus in culture
- Assay type: functional, organism-based, Chlorocebus sabaeus, Vero C1008
- conditionNotes: vero c1008; read-out: IC50
quantityMeasured: IC50

Consider the compound "CNC[C@H]1C[C@@H]2c3ccccc3Cc3ccc(F)cc3[C@H]2O1" . State its measured IC50.
> 50.1 µM

Provenance of the data: ChEMBL document CHEMBL4651402
